Tested on: Mus musculus
method notes: Toxicity in mouse assessed as muscle tremor at 0.05 to 0.2 mg/kg measured for 7 days
Format: organism-based, Muscle tissue
Parameters: dose 0.05-0.2 mg/kg
reported conditions: in vivo, 168 h

compound | Activity
Clc1ccc2c(c1)CCc1cccnc1C2=C1CCN(C2CCC(Cl)CC2)CC1 (stereo not given) | Non-toxic
ClCCCN1CCC(=C2c3ccc(Cl)cc3CCc3cccnc32)CC1 | Non-toxic
CCCN1CCC(=C2c3ccc(Cl)cc3CCc3cccnc32)CC1 | Non-toxic
FCCCN1CCC(=C2c3ccc(Cl)cc3CCc3cccnc32)CC1 | Non-toxic
OCCCN1CCC(=C2c3ccc(Cl)cc3CCc3cccnc32)CC1 | Non-toxic

====

target: Histamine H1 receptor (Cavia porcellus) (UniProt P31389)
Sequence (P31389 whole entry): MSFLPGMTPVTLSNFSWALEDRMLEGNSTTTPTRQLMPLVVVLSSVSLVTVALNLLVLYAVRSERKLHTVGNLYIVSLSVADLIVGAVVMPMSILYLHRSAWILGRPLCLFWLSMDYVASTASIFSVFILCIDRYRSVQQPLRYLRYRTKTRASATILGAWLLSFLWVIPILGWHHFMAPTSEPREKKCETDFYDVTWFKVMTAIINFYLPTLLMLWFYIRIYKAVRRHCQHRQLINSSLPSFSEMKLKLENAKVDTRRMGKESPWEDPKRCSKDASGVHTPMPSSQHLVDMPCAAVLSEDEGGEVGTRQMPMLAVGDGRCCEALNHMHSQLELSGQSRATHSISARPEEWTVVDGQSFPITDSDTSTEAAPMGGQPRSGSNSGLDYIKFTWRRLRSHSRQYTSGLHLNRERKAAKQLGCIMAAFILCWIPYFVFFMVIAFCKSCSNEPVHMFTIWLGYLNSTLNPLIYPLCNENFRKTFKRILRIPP
method notes: Antagonist activity at histamine H1 receptor in guinea pig ileum assessed as inhibition of histamine-induced smooth muscle spasm at 0.2 mg/mL after 3 mins (reference value: 1.27 +/- 5.65%)
Assay type: tissue-based
Design: scale not given: the % may be the effect or the level left
quantity: Activity (%)

compound | target | quantity | meas value
ClCCCN1CCC(=C2c3ccc(Cl)cc3CCc3cccnc32)CC1 | Histamine H1 receptor (Cavia porcellus) (UniProt P31389) | Activity | 43
Clc1ccc2c(c1)CCc1cccnc1C2=C1CCN(C2CC=CCC2)CC1 (stereo unspecified) | Histamine H1 receptor (Cavia porcellus) (UniProt P31389) | Activity | 28.3
Clc1ccc2c(c1)CCc1cccnc1C2=C1CCN(C2CCC(Cl)CC2)CC1 (stereo unspecified) | Histamine H1 receptor (Cavia porcellus) (UniProt P31389) | Activity | 61.1
O=C1c2ccccc2C(=O)N1CCCN1CCC(=C2c3ccc(Cl)cc3CCc3cccnc32)CC1 | Histamine H1 receptor (Cavia porcellus) (UniProt P31389) | Activity | 26.6
CN(C)CCCN1CCC(=C2c3ccc(Cl)cc3CCc3cccnc32)CC1 | Histamine H1 receptor (Cavia porcellus) (UniProt P31389) | Activity | 30.4
NCCCN1CCC(=C2c3ccc(Cl)cc3CCc3cccnc32)CC1 | Histamine H1 receptor (Cavia porcellus) (UniProt P31389) | Activity | 26

====

target: Histamine H1 receptor (Cavia porcellus)
method notes: Antagonist activity at histamine H1 receptor in guinea pig ileum assessed as inhibition of histamine-induced smooth muscle spasm at 0.2 mg/mL after 3 mins (reference value: 1.27 +/- 5.65%)
Format: tissue-based
Set-up: scale not given: the % may be the effect or the level left
The entries below are paired with their reported Activity.
quantity: Activity

compound | meas value
Clc1ccc2c(c1)CCc1cccnc1C2=C1CCN(C2CCCCC2)CC1 | 29.4%
OC1CCC(N2CCC(=C3c4ccc(Cl)cc4CCc4cccnc43)CC2)CC1 (stereo unspecified) | 13%
CCCN1CCC(=C2c3ccc(Cl)cc3CCc3cccnc32)CC1 | 42.5%
FCCCN1CCC(=C2c3ccc(Cl)cc3CCc3cccnc32)CC1 | 48.7%
OCCCN1CCC(=C2c3ccc(Cl)cc3CCc3cccnc32)CC1 | 45.2%
Clc1ccc2c(c1)CCc1cccnc1C2=C1CCNCC1 | 49.1%

====

target: Histamine H1 receptor (Cavia porcellus) (UniProt P31389)
method notes: Antagonist activity at histamine H1 receptor in guinea pig ileum assessed as inhibition of histamine-induced smooth muscle contraction at 0.2 mg/mL after 3 mins (reference value: 3.37 +/- 1.05 g)
Assay type: tissue-based
The entries below are paired with their reported Activity.

compound | scale unit | Activity
O=C1c2ccccc2C(=O)N1CCCN1CCC(=C2c3ccc(Cl)cc3CCc3cccnc32)CC1 | g | 2.71
ClCCCN1CCC(=C2c3ccc(Cl)cc3CCc3cccnc32)CC1 | g | 1.81
Clc1ccc2c(c1)CCc1cccnc1C2=C1CCN(C2CC=CCC2)CC1 (stereo unspecified) | g | 2.38
Clc1ccc2c(c1)CCc1cccnc1C2=C1CCNCC1 | g | 1.67
Clc1ccc2c(c1)CCc1cccnc1C2=C1CCN(C2CCC(Cl)CC2)CC1 (stereo unspecified) | g | 1.29
OCCCN1CCC(=C2c3ccc(Cl)cc3CCc3cccnc32)CC1 | g | 1.73

====

System: Mus musculus
method notes: Toxicity in mouse assessed as convulsion at 0.05 to 0.2 mg/kg measured for 7 days
Format: organism-based
Parameters: dose 0.05-0.2 mg/kg
reported conditions: in vivo, 168 h

compound | target | Activity
Clc1ccc2c(c1)CCc1cccnc1C2=C1CCN(C2CCC(Cl)CC2)CC1 (stereo not given) | Mus musculus | Non-toxic
FCCCN1CCC(=C2c3ccc(Cl)cc3CCc3cccnc32)CC1 | Mus musculus | Non-toxic
OCCCN1CCC(=C2c3ccc(Cl)cc3CCc3cccnc32)CC1 | Mus musculus | Non-toxic
CCCN1CCC(=C2c3ccc(Cl)cc3CCc3cccnc32)CC1 | Mus musculus | Non-toxic
ClCCCN1CCC(=C2c3ccc(Cl)cc3CCc3cccnc32)CC1 | Mus musculus | Non-toxic
